Values compiled from ChEMBL document CHEMBL3763079.

test.name: Antioxidant activity assessed as nitric oxide free radical scavenging activity at 20 uM
Format: physicochemical
Field: Activity. Provide a value for each of the compounds that follow.
Field: numeric (%). Do not append units.

Output measured Activity for this item: COc1cc(C=C(C(=O)/C=C/c2ccc(O)c(OC)c2)C(=O)/C=C/c2ccc(O)c(OC)c2)ccc1O 72.5

Output measured Activity for this item: COc1cc(/C=C/c2cc(/C=C/c3ccc(O)c(OC)c3)n(C(=O)c3ccncc3)n2)ccc1O 74.2

Output measured Activity for this item: COc1cc(/C=C/c2cc(/C=C/c3ccc(O)c(OC)c3)n(C(N)=O)n2)ccc1O 72.6

Output measured Activity for this item: COc1cc(/C=C/c2cc(/C=C/c3ccc(O)c(OC)c3)n(C(N)=S)n2)ccc1O 76.1

Output measured Activity for this item: COc1cc(/C=C/C(=O)C(=Cc2ccccc2O)C(=O)/C=C/c2ccc(O)c(OC)c2)ccc1O 52.2

Output measured Activity for this item: COc1cc(/C=C/C(=O)CC(=O)/C=C/c2ccc(O)c(OC)c2)ccc1O [CURCUMIN] 36.5

Output measured Activity for this item: COc1cc(/C=C/c2cc(/C=C/c3ccc(O)c(OC)c3)n(-c3ccc([N+](=O)[O-])cc3[N+](=O)[O-])n2)ccc1O 33

Output measured Activity for this item: COc1cc(/C=C/C(=O)C(=Cc2ccc(N(C)C)cc2)C(=O)/C=C/c2ccc(O)c(OC)c2)ccc1O 36.6

Output measured Activity for this item: COc1cc(/C=C/C(=O)C(=Cc2ccccc2)C(=O)/C=C/c2ccc(O)c(OC)c2)ccc1O 49.2

* * *

test.name: Antioxidant activity assessed as superoxide oxide free radical scavenging activity at 10 uM
Format: physicochemical
Field: Activity. Provide a value for each of the molecules that follow.
Field: numeric (%). Do not append units.

Output measured Activity for this item: COc1cc(/C=C/C(=O)C(=Cc2ccccc2)C(=O)/C=C/c2ccc(O)c(OC)c2)ccc1O 30.8

Output measured Activity for this item: COc1cc(/C=C/C(=O)C(=Cc2ccccc2O)C(=O)/C=C/c2ccc(O)c(OC)c2)ccc1O 50.2

Output measured Activity for this item: COc1cc(C=C(C(=O)/C=C/c2ccc(O)c(OC)c2)C(=O)/C=C/c2ccc(O)c(OC)c2)ccc1O 31.2

Output measured Activity for this item: COc1cc(/C=C/C(=O)C(=Cc2ccc(N(C)C)cc2)C(=O)/C=C/c2ccc(O)c(OC)c2)ccc1O 34.2

* * *

test.name: Antioxidant activity assessed as DPPH free radical scavenging activity at 2 uM
Assay type: physicochemical
measured.metric: Activity (%)
Field: numeric (%). Do not append units.

Output measured Activity for this item: COc1cc(C=C(C(=O)/C=C/c2ccc(O)c(OC)c2)C(=O)/C=C/c2ccc(O)c(OC)c2)ccc1O 12.5

Output measured Activity for this item: COc1cc(/C=C/C(=O)C(=Cc2ccc(N(C)C)cc2)C(=O)/C=C/c2ccc(O)c(OC)c2)ccc1O 22.4

Output measured Activity for this item: COc1cc(/C=C/C(=O)CC(=O)/C=C/c2ccc(O)c(OC)c2)ccc1O 6

Output measured Activity for this item: COc1cc(/C=C/c2cc(/C=C/c3ccc(O)c(OC)c3)n(C(N)=S)n2)ccc1O 29.9

Output measured Activity for this item: COc1cc(/C=C/c2cc(/C=C/c3ccc(O)c(OC)c3)n(C(=O)c3ccncc3)n2)ccc1O 31.2

Output measured Activity for this item: COc1cc(/C=C/C(=O)C(=Cc2ccccc2)C(=O)/C=C/c2ccc(O)c(OC)c2)ccc1O 16.2

Output measured Activity for this item: COc1cc(/C=C/C(=O)C(=Cc2ccccc2O)C(=O)/C=C/c2ccc(O)c(OC)c2)ccc1O 13.3

Output measured Activity for this item: COc1cc(/C=C/c2cc(/C=C/c3ccc(O)c(OC)c3)n(C(N)=O)n2)ccc1O 20

Output measured Activity for this item: COc1cc(/C=C/c2cc(/C=C/c3ccc(O)c(OC)c3)n(-c3ccc([N+](=O)[O-])cc3[N+](=O)[O-])n2)ccc1O 28.3
